target: Grb2 SH2 (UniProt P62993); test: SH2 binding enrichment of the phosphorylated peptide, bacterial display (enrichment ratio); higher = better substrate or ligand; peptides without Tyr show the background
Sequence (P62993 whole entry, looked up): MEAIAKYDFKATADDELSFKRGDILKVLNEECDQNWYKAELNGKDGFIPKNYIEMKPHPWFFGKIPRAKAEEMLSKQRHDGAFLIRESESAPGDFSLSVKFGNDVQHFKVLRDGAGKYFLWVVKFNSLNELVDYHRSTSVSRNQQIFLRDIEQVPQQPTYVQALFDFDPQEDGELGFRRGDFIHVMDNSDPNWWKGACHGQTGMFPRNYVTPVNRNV
Consider the following sequences and their measured SH2 binding enrichment readings.

{"columns": ["Chain", "SH2 binding enrichment"],
 "data": [
  ["TPTFPYLLPKS [PLD2_Y580_YF]", 1.01],
  ["PPSLSYLSFEG [EXOSC3_Y143_A139P]", 1.07],
  ["YIRKDYEACKA [BBS4_Y48]", 0.982],
  ["RLRKYHLGKYL [KLB_Y906_Y906H]", 0.476],
  ["RAMRRYLEWGE [ERBB3_Y680_R683W]", 0.632],
  ["QRASDYFSQQM [GBP6_Y333_A331S_YF]", 0.668],
  ["IALNSYHSRNC [IFNGR1_Y397]", 0.917],
  ["CPFNLYAEQFS [HGD_Y40_L44F_YF]", 0.942],
  ["KASIMYPSSNC [CXCL11_Y52_N55S]", 0.943],
  ["VNYQPYRKHKY [TEX37_Y28_D24N]", 0.777],
  ["PVADPYDQSFE [MAPK14_Y323]", 0.927],
  ["GLTSTYVGIRK [ROBO1_Y932_A933V]", 0.741],
  ["QDGYSYPSRQM [LDLR_Y847]", 0.857],
  ["TGVRDYIHVVD [GALE_Y241]", 0.81],
  ["PVDVAYRHGFF [PLEC_Y2967_R2969H_YF]", 0.722],
  ["VLVSQYEKLDA [AMZ2_Y26_N30D]", 0.896],
  ["QLAPQYTYAQG [FLNA_Y1761]", 0.887],
  ["FTHSDYQFSQR [PKP2_Y166_YF]", 1],
  ["RALLNYIASKF [GSTA3_Y74_I71L_YF]", 0.842],
  ["YRRITYYNWRH [PDE6B_Y556_H557Y]", 0.742],
  ["RHPLDYLRQYP [NARS2_Y138_E137D]", 1.36],
  ["FDGKEYDPVEA [MAPRE2_Y167_YF]", 0.985],
  ["MILSAYALGGL [CPS1_Y590_R587L]", 0.835],
  ["QLAPQYTFTQG [FLNA_Y1761_A1764T_YF]", 0.915],
  ["SMGHRYIEVFR [HNRNPF_Y82_K87R]", 0.936],
  ["SFSGEYGSGGG [ZG16_Y30_G32S_YF]", 0.885],
  ["YGPPQYNIQYS [ERBB2IP_Y977]", 0.728],
  ["TLERHYEELQA [SPTBN2_Y834]", 0.586],
  ["RRNEEYCLLDS [ITK_Y198]", 0.75]
]}

---

target: EPHB1 (UniProt P54762); test: phosphorylation enrichment, bacterial display (enrichment ratio); higher = better substrate or ligand; peptides without Tyr show the background
Sequence (P54762 whole entry, looked up): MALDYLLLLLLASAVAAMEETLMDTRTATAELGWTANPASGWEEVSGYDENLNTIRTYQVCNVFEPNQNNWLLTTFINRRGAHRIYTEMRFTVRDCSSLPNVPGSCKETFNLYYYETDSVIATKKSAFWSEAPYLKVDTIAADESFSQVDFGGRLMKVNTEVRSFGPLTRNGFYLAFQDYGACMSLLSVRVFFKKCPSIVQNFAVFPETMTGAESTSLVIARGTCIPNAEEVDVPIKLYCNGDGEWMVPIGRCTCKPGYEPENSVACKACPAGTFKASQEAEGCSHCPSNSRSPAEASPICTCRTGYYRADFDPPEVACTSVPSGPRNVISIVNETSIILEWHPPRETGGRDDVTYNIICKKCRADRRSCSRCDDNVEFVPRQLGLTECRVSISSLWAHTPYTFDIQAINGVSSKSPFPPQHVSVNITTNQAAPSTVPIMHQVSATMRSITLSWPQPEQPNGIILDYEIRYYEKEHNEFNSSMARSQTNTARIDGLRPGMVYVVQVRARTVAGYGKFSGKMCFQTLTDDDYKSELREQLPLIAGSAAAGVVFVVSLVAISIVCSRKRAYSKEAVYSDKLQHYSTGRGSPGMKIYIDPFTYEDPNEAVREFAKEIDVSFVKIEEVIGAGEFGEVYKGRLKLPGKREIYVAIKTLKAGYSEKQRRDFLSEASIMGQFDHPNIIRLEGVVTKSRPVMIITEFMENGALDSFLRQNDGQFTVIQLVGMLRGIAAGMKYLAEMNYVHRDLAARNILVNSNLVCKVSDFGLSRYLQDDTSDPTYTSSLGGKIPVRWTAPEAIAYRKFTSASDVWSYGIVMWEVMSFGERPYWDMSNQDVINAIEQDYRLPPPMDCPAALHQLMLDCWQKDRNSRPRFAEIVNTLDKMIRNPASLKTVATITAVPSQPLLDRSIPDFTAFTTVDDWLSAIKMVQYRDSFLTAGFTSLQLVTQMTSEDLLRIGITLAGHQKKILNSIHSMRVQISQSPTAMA
Label NOT MET if phosphorylation enrichment falls below 0.6; label MET in every other case.

{"columns": ["Chain", "Label value"],
 "data": [
  ["RLLRGYDQLAF [HLA-C_Y137_S140L_YF]", "NOT MET"],
  ["AGADGYDFLAP [FOXL2_Y186_G187D_YF]", "NOT MET"],
  ["KGRAGYTTVAV [RET_Y752]", "NOT MET"],
  ["QVMDGYPMPIG [MMP14_Y353]", "MET"],
  ["LDLSYYHTSSS [EMD_Y182_P183H]", "NOT MET"],
  ["LRSRVYEVPVE [SLC26A3_Y756_N753S]", "MET"]
]}

---

target: EPHB1 (UniProt P54762); assay: phosphorylation enrichment, bacterial display (enrichment ratio); higher = better substrate or ligand; peptides without Tyr show the background
Consider the following sequences and their measured phosphorylation enrichment readings.
Property: phosphorylation enrichment

{"columns": ["Chain", "Experimental target", "Reported result"],
 "data": [
  ["FTNRNYDLDFD [MYC_Y12_YF]", "EPHB1 (UniProt P54762)", 0.751],
  ["FGSVDCWEKFF [EEF1AKNMT_Y16_Y16C]", "EPHB1 (UniProt P54762)", 0.474],
  ["GYDHSYYFIAT [ESD_Y262]", "EPHB1 (UniProt P54762)", 1.95],
  ["WVYNHYRWIIW [BRCA2_Y2624]", "EPHB1 (UniProt P54762)", 0.521],
  ["GKGGSYSQAAS [HLA-B_Y344_C349S]", "EPHB1 (UniProt P54762)", 0.47],
  ["GRVLGYGAFRK [FLT4_Y853_G857R]", "EPHB1 (UniProt P54762)", 0.44],
  ["MAFDRYVAICA [OR52J3_Y125_V128I]", "EPHB1 (UniProt P54762)", 1.12],
  ["RHPLEYLRQYP [NARS2_Y138]", "EPHB1 (UniProt P54762)", 0.523],
  ["YIPFRYPKEFQ [IDS_Y234_H229Y]", "EPHB1 (UniProt P54762)", 0.464],
  ["HPAGNYSLSSV [ARFGAP3_Y473_Q468H]", "EPHB1 (UniProt P54762)", 0.706],
  ["DQVEQYKKELE [LMNA_Y259]", "EPHB1 (UniProt P54762)", 0.67],
  ["KVNKIYHPDFI [LIG3_Y767_Y768H]", "EPHB1 (UniProt P54762)", 0.39],
  ["LKEIRYPPFTD [ALDH3B2_Y362_H361R_YF]", "EPHB1 (UniProt P54762)", 0.883],
  ["GVLKEYGEKVL [CPS1_Y529_V531E]", "EPHB1 (UniProt P54762)", 0.42],
  ["IRQDDYESLKE [MTR_Y921_H920D]", "EPHB1 (UniProt P54762)", 0.633],
  ["NTVLGYFIGRI [GARS1_Y408]", "EPHB1 (UniProt P54762)", 0.48],
  ["VPLLEYFRDIF [CDAN1_Y712_YF]", "EPHB1 (UniProt P54762)", 0.523],
  ["QSPQLYKQMCI [DARS1_Y253]", "EPHB1 (UniProt P54762)", 0.836],
  ["YAGRDYSLDEF [MYOF_Y1705_G1701A]", "EPHB1 (UniProt P54762)", 0.658],
  ["SFPSYYTSHVQ [NEFL_Y443]", "EPHB1 (UniProt P54762)", 1.88],
  ["QLQTNYPSSDN [MAX_Y115]", "EPHB1 (UniProt P54762)", 0.583],
  ["PPVVNYEEDAR [FER_Y402]", "EPHB1 (UniProt P54762)", 0.957],
  ["FETVKYFNNER [ABCB7_Y345_YF]", "EPHB1 (UniProt P54762)", 0.564],
  ["SLTGAYASGIP [POM121C_Y378_T379A]", "EPHB1 (UniProt P54762)", 0.518],
  ["ADRNHYRRFRR [YBX1_Y145_P149R_YF]", "EPHB1 (UniProt P54762)", 0.462],
  ["VGGRIYIDDAL [PKLR_Y218_G222A]", "EPHB1 (UniProt P54762)", 0.51],
  ["SEELHYFVQNH [UQCRC2_Y207]", "EPHB1 (UniProt P54762)", 0.647],
  ["DQIDTYELSGG [DNM1_Y354]", "EPHB1 (UniProt P54762)", 0.423],
  ["FVSIVCNDSGE [TSC2_Y1650_Y1650C]", "EPHB1 (UniProt P54762)", 0.644]
]}

---

Consider the following sequences and their measured phosphorylation enrichment readings.
molecular target: Fes (UniProt P07332); test: phosphorylation enrichment, bacterial display (enrichment ratio); higher = better substrate or ligand; peptides without Tyr show the background
Sequence (P07332 whole entry, looked up): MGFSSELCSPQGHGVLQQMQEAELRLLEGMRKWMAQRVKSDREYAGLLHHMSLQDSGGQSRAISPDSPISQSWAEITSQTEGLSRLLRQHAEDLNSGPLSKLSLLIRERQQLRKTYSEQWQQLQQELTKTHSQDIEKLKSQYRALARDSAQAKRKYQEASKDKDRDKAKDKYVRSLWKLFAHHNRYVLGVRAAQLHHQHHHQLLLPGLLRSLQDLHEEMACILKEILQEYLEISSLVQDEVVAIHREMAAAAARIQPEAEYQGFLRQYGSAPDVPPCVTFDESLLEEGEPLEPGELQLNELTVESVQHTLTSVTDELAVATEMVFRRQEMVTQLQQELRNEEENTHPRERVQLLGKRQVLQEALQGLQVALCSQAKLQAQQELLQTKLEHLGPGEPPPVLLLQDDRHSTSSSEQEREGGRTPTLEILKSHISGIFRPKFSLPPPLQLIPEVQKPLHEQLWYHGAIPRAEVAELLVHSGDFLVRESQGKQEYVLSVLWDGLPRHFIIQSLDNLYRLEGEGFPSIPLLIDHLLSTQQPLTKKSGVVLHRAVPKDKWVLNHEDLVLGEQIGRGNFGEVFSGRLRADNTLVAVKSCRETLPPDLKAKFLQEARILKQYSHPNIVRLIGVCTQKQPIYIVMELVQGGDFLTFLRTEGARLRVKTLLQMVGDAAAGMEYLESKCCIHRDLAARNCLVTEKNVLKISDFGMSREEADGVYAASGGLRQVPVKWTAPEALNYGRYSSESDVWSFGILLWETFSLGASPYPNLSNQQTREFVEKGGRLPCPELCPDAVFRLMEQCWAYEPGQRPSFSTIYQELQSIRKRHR

{"columns": ["Chain", "Experimental target", "phosphorylation enrichment"],
 "data": [
  ["CASQLCPRHKH [DCTN4_Y263_Y263C]", "Fes (UniProt P07332)", 0.533],
  ["MLNTNYHLPPS [MT-ATP8_Y33]", "Fes (UniProt P07332)", 0.526],
  ["SLIDMYSKVLD [OPA1_Y268_E270K]", "Fes (UniProt P07332)", 1.02],
  ["YAGRDYSLDEF [MYOF_Y1705_G1701A]", "Fes (UniProt P07332)", 1.14],
  ["CERLPYDASKW [FLT1_Y815]", "Fes (UniProt P07332)", 1.13],
  ["HHIDYYKETTN [FGFR1_Y654_K656E]", "Fes (UniProt P07332)", 1.39],
  ["DAVKHYMQFRK [CNGA2_Y395]", "Fes (UniProt P07332)", 0.558],
  ["DDHFTYSRYPW [LY75_Y888]", "Fes (UniProt P07332)", 1.13],
  ["IRQDDYESLKE [MTR_Y921_H920D]", "Fes (UniProt P07332)", 1.15],
  ["QLAPQYTYAQG [FLNA_Y1761]", "Fes (UniProt P07332)", 1.01],
  ["LNPFIYSLRNR [OR1A1_Y288]", "Fes (UniProt P07332)", 1.55],
  ["SHNELYYEAAE [VANGL1_Y344_E347A]", "Fes (UniProt P07332)", 1.12],
  ["KNEKVYTRHGV [FLOT1_Y56_S52N]", "Fes (UniProt P07332)", 0.487],
  ["RQQQDYWLIDV [ANPEP_Y600]", "Fes (UniProt P07332)", 1.6]
]}
